System: Nocardia Asteroides ATCC9970
parameter.measured: MIC (µg/mL)
Answers are plain numbers, in µg/mL.

As a guide, the following entries are already answered.
- smiles.repr: "CC[C@H]1OC(=O)[C@H](C)C(=O)[C@H](C)[C@@H](O[C@@H]2O[C@H](C)C[C@H](N(C)C)[C@H]2O)[C@](C)(OCC#Cc2ccc(-c3ccsc3)s2)C[C@@H](C)C(=O)[C@H](C)[C@H]2NC(=O)O[C@@]21C"
  MIC, µg/mL: 0.01
- smiles.repr: "CC[C@H]1OC(=O)[C@H](C)C(=O)[C@H](C)[C@@H](O[C@@H]2O[C@H](C)C[C@H](N(C)C)[C@H]2O)[C@](C)(OC/C=C/c2cncc(-c3cncnc3)c2)C[C@@H](C)C(=O)[C@H](C)[C@H]2NC(=O)O[C@@]21C"
  MIC, µg/mL: 0.05
- smiles.repr: "CC[C@H]1OC(=O)[C@H](C)C(=O)[C@H](C)[C@@H](O[C@@H]2O[C@H](C)C[C@H](N(C)C)[C@H]2O)[C@](C)(OC/C=C/c2cnc(-c3cccs3)s2)C[C@@H](C)C(=O)[C@H](C)[C@H]2NC(=O)O[C@@]21C"
  MIC, µg/mL: 0.05
- smiles.repr: "CC[C@H]1OC(=O)[C@H](C)C(=O)[C@H](C)[C@@H](O[C@@H]2O[C@H](C)C[C@H](N(C)C)[C@H]2O)[C@](C)(OC/C=C/c2cncc(-c3cncs3)c2)C[C@@H](C)C(=O)[C@H](C)[C@H]2NC(=O)O[C@@]21C"
  MIC, µg/mL: 0.02
- smiles.repr: "CC[C@H]1OC(=O)[C@H](C)C(=O)[C@H](C)[C@@H](O[C@@H]2O[C@H](C)C[C@H](N(C)C)[C@H]2O)[C@](C)(OC/C=C/c2cnc(-c3cnccn3)s2)C[C@@H](C)C(=O)[C@H](C)[C@H]2NC(=O)O[C@@]21C"
  MIC, µg/mL: 0.02
- smiles.repr: "CC[C@H]1OC(=O)[C@H](C)C(=O)[C@H](C)[C@@H](O[C@@H]2O[C@H](C)C[C@H](N(C)C)[C@H]2O)[C@](C)(OC/C=C/c2cnc(-c3cncnc3)s2)C[C@@H](C)C(=O)[C@H](C)[C@H]2NC(=O)O[C@@]21C"
  MIC, µg/mL: 0.02
- smiles.repr: "CC[C@H]1OC(=O)[C@H](C)C(=O)[C@H](C)[C@@H](O[C@@H]2O[C@H](C)C[C@H](N(C)C)[C@H]2O)[C@](C)(OCC#Cc2ccc(-c3cc4ccccc4s3)s2)C[C@@H](C)C(=O)[C@H](C)[C@H]2NC(=O)O[C@@]21C"
  MIC, µg/mL: 0.39
- smiles.repr: "CC[C@H]1OC(=O)[C@H](C)C(=O)[C@H](C)[C@@H](O[C@@H]2O[C@H](C)C[C@H](N(C)C)[C@H]2O)[C@](C)(OCC#Cc2ccc(-c3cccc(C)c3)s2)C[C@@H](C)C(=O)[C@H](C)[C@H]2NC(=O)O[C@@]21C"
  MIC, µg/mL: 0.1
- smiles.repr: "CC[C@H]1OC(=O)[C@H](C)C(=O)[C@H](C)[C@@H](O[C@@H]2O[C@H](C)C[C@H](N(C)C)[C@H]2O)[C@](C)(OC/C=C/c2ccc3ncc(-c4ccco4)cc3c2)C[C@@H](C)C(=O)[C@H](C)[C@H]2NC(=O)O[C@@]21C"
  MIC, µg/mL: 0.1
- smiles.repr: "CC[C@H]1OC(=O)[C@H](C)C(=O)[C@H](C)[C@@H](O[C@@H]2O[C@H](C)C[C@H](N(C)C)[C@H]2O)[C@](C)(OC/C=C/c2ccc(-c3ccccn3)s2)C[C@@H](C)C(=O)[C@H](C)[C@H]2NC(=O)O[C@@]21C"
  MIC, µg/mL: 0.02

Batch request: MIC per item, same order as input.
1. CC[C@H]1OC(=O)[C@H](C)C(=O)[C@H](C)[C@@H](O[C@@H]2O[C@H](C)C[C@H](N(C)C)[C@H]2O)[C@](C)(OC/C=C/c2ccc(-c3ccsc3)s2)C[C@@H](C)C(=O)[C@H](C)[C@H]2NC(=O)O[C@@]21C
2. CC[C@H]1OC(=O)[C@H](C)C(=O)[C@H](C)[C@@H](O[C@@H]2O[C@H](C)C[C@H](N(C)C)[C@H]2O)[C@](C)(OCC#Cc2ccc(-c3cccnc3)s2)C[C@@H](C)C(=O)[C@H](C)[C@H]2NC(=O)O[C@@]21C
3. CC[C@H]1OC(=O)[C@H](C)C(=O)[C@H](C)[C@@H](O[C@@H]2O[C@H](C)C[C@H](N(C)C)[C@H]2O)[C@](C)(OCC#Cc2ccc(-c3cncc(C#N)c3)s2)C[C@@H](C)C(=O)[C@H](C)[C@H]2NC(=O)O[C@@]21C
4. CC[C@H]1OC(=O)[C@H](C)C(=O)[C@H](C)[C@@H](O[C@@H]2O[C@H](C)C[C@H](N(C)C)[C@H]2O)[C@](C)(OC/C=C/c2ccc(-c3cccnc3)s2)C[C@@H](C)C(=O)[C@H](C)[C@H]2NC(=O)O[C@@]21C
5. CC[C@H]1OC(=O)[C@H](C)C(=O)[C@H](C)[C@@H](O[C@@H]2O[C@H](C)C[C@H](N(C)C)[C@H]2O)[C@](C)(OC/C=C/c2cncc(-c3cccnc3)c2)C[C@@H](C)C(=O)[C@H](C)[C@H]2NC(=O)O[C@@]21C

1. 0.1
2. 0.05
3. 0.01
4. 0.05
5. 0.05
